molecular target: Cholinesterase (Equus caballus); experiment: Inhibition of horse serum BuChE using butyrylthiocholine as substrate by UV spectroscopic analysis
Sequence (P81908 whole entry): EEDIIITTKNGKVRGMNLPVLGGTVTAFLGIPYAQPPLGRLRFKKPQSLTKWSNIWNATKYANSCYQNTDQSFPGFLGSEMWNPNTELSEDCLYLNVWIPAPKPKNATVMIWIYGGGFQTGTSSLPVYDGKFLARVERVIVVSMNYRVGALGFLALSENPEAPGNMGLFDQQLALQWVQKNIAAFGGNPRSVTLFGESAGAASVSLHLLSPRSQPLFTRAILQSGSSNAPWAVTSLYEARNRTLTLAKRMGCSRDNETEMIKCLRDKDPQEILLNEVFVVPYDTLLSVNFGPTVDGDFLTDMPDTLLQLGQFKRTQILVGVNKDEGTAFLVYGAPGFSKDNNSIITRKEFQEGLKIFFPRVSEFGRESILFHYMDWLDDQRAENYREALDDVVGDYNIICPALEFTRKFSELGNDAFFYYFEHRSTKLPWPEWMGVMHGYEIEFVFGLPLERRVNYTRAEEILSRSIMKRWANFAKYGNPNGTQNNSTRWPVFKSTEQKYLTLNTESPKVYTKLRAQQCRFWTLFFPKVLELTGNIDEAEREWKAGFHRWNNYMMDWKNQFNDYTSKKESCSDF
IC50: recorded values

Task item: Consider the compound CC(=O)n1c2ccccc2sc2ccc(Cl)cc2n1C(C)=O and give its measured IC50.
Reply: > 100 µM

Task item: Thanks! And CC(=O)n1[nH]c2ccc([N+](=O)[O-])cc2sc2ccccc21 ?
Reply: > 100 µM

Task item: Record: O=C(CCN1CCCCC1)n1c2ccccc2sc2ccc(Cl)cc2n1C(=O)CCN1CCCCC1
Reply: > 100 µM

Task item: Param item: COc1ccc2c(c1)sc1ccccc1n(C(C)=O)n2C(C)=O
Reply: > 100 µM

Task item: Next entry: CN(C)CCC(=O)n1c2ccccc2sc2ccc(Cl)cc2n1C(=O)CCN(C)C
Reply: 0.7 µM

Task item: Cool, now O=C(CN1CCCCC1)n1c2ccccc2sc2cccc(Cl)c2n1C(=O)CN1CCCCC1
Reply: 0.9 µM

----------
Overview of recorded Activity for various compounds
test system: SH-SY5Y; test: Neuroprotective activity in human SH-SY5Y cells assessed as protection against rotenone-oligomycin-induced toxicity at 3 uM co-incubated with rotenone-oligomycin measured after 24 hrs by lactate dehydrogenase release assay; type: functional
Lab book: enter the figure in %, no units written.

CC(=O)n1c2ccccc2sc2ccc(Cl)cc2n1C(C)=O : 38.3
Clc1ccc2c(c1)Sc1ccccc1N=N2 : 38.8
Cc1c(C)c2c(c(C)c1O)CCC(C)(C(=O)O)O2 (configuration not stated) : 55.7
CC(=O)n1[nH]c2ccc([N+](=O)[O-])cc2sc2ccccc21 : 21.9
O=C(CN1CCCCC1)n1c2ccccc2sc2cccc(Cl)c2n1C(=O)CN1CCCCC1 : 35.6

Task item: Fill in the blank: the reported Activity of COc1ccc2c(c1)sc1ccccc1n(C(C)=O)n2C(C)=O is ____.
Reply: 53.8

Task item: Next compound up: O=C(CCN1CCCCC1)n1c2ccccc2sc2ccc(Cl)cc2n1C(=O)CCN1CCCCC1
Reply: 63

Task item: Try this compound too: CC(=O)n1c2ccccc2sc2cc(Cl)ccc2n1C(C)=O
Reply: 63.2

Task item: Same question for O=C(CCN1CCCC1)n1c2ccccc2sc2ccc(Cl)cc2n1C(=O)CCN1CCCC1 please.
Reply: 32.7

Task item: Now the compound CC(=O)n1c2ccccc2sc2cc(C(F)(F)F)ccc2n1C(C)=O
Reply: 35.8

Task item: Moving on to CN1CCN(CC(=O)n2c3ccccc3sc3ccc(Cl)cc3n2C(=O)CN2CCN(C)CC2)CC1
Reply: 35.7

Task item: Then what about the compound CN(C)CCC(=O)n1c2ccccc2sc2ccc(Cl)cc2n1C(=O)CCN(C)C ?
Reply: 15.9

----------
assay: Permeability of the compound by PAMPA; format: physicochemical; conditions: read-out: permeability
recorded endpoint: Papp (×10⁻⁶ cm/s)
Express it in ×10⁻⁶ cm/s; write the number only.

O=C(CN1CCCCC1)n1c2ccccc2sc2cccc(Cl)c2n1C(=O)CN1CCCCC1 : 7.3
Clc1ccc2c(c1)Sc1ccccc1N=N2 : 12.3
O=C(CCN1CCCC1)n1c2ccccc2sc2ccc(Cl)cc2n1C(=O)CCN1CCCC1 : 3.7
COc1ccc2c(c1)sc1ccccc1n(C(C)=O)n2C(C)=O : 12.6
CN1CCN(CC(=O)n2c3ccccc3sc3ccc(Cl)cc3n2C(=O)CN2CCN(C)CC2)CC1 : 5.9

Here is the next item to consider.
Task item: Quick check: Papp of CC(=O)n1c2ccccc2sc2ccc(Cl)cc2n1C(C)=O ?
Reply: 12.3

----------
Quick reference: Papp of the listed items.
assay: Permeability of the compound by PAMPA; type: physicochemical; settings: read-out: permeability
Write the value in ×10⁻⁶ cm/s as a bare number.

Examples from the recorded data:
CN(C)CCC(=O)n1c2ccccc2sc2ccc(Cl)cc2n1C(=O)CCN(C)C : 14.2
CC(=O)n1[nH]c2ccc([N+](=O)[O-])cc2sc2ccccc21 : 3.9
CC(=O)n1c2ccccc2sc2cc(Cl)ccc2n1C(C)=O : 10.1
O=C(CCN1CCCCC1)n1c2ccccc2sc2ccc(Cl)cc2n1C(=O)CCN1CCCCC1 : 5.3

// moving on: another record for Papp
Task item: I am curious: what Papp value has been reported for CC(=O)n1c2ccccc2sc2cc(C(F)(F)F)ccc2n1C(C)=O ?
Reply: 4
